# System: acute lymphocytic leukemia cell line (REH)
# measurement-notes: Cell proliferation, REH
# Format: cell-based, human
# test-settings: compared to negative controls
[5FU] = 5-fluorouracil base replacing uracil
assay-readout: leukemia cancer cell proliferation

GU^FCCAGU^FU^FU^FU^FCCCAGGAAU^FCCCU^F (GUCCAGUUUUCCCAGGAAUCCCU; RNA, [5FU] at 2, 7, 8, 9, 10, 19, 23, backbone not given here) [modified miR-145] | inhibited
U^FAU^FU^FCAGGAAGGU^FGU^FU^FACU^FU^FAA (UAUUCAGGAAGGUGUUACUUAA; RNA, [5FU] at 1, 3, 4, 13, 15, 16, 19, 20, backbone not given here) [modified miR-506, miR-506 in which all (8) U bases are replaced by 5-fluorouracil] | inhibited
CAGU^FGGU^FU^FU^FU^FACCCU^FAU^FGGU^F AG (CAGUGGUUUUACCCUAUGGUAG; RNA, [5FU] at 4, 7, 8, 9, 10, 15, 17, 20, backbone not given here) [modified miR-140 [SEQ ID NO. 16]] | inhibited
